Target: HLA-A*01:01
Experiment: IEDB peptide-MHC binding, purified MHC/direct/fluorescence; filed as Kd, often an IC50 or EC50 that approximates it; bounds were set here for any values at or beyond the usual limits of such assays
Conditions: source organism: Influenza A virus (A/swine/Miyagi/5/2003(H1N2))
Measured property: Kd (nM)
One number for each entry, in nM.

Exercise: Fill in Kd for record GTEKLTITY
Solution: 8.3

---

Target: HLA-B*18:01
Assay: IEDB peptide-MHC binding, purified MHC/competitive/fluorescence; filed as Kd, often an IC50 or EC50 that approximates it; bounds were set here for any values at or beyond the usual limits of such assays
Settings: source organism: Entamoeba dispar SAW760
pKd: −log10 of the molar value.
Measured property: pKd

Exercise: Fill in pKd for record LMTHTWHAK
Solution: ≤ 4.70

---

Molecular target: HLA-A*02:12
Test: IEDB peptide-MHC binding, purified MHC/competitive/fluorescence; filed as Kd, often an IC50 or EC50 that approximates it; bounds were set here for any values at or beyond the usual limits of such assays
Conditions: source organism: Cryptosporidium parvum Iowa II
Measured property: Kd

Exercise: Report measured Kd on HLA-A*02:12; entry: KIVPLPPMY
Solution: ≥ 20 µM

---

Target: HLA-B*40:02
Test: IEDB peptide-MHC binding, purified MHC/competitive/radioactivity; filed as Kd, often an IC50 or EC50 that approximates it; bounds were set here for any values at or beyond the usual limits of such assays
Settings: source organism: Mammarenavirus brazilense
Measured property: pKd
Numbers only, as −log10 of the molar value.

Exercise: Fill in pKd for record AENDIVEAL
Solution: 7.60

---

Biological target: HLA-A*02:19
Test: IEDB peptide-MHC binding, purified MHC/direct/fluorescence; filed as Kd, often an IC50 or EC50 that approximates it; bounds were set here for any values at or beyond the usual limits of such assays
Details: source organism: Mycobacterium tuberculosis str. Haarlem
pKd: −log10 of the molar value.
Measured property: pKd

Exercise: Fill in pKd for record EILWDVIPF
Solution: ≤ 4.70

---

Target: HLA-A*02:01
Assay: IEDB peptide-MHC binding, purified MHC/competitive/fluorescence; filed as Kd, often an IC50 or EC50 that approximates it; bounds were set here for any values at or beyond the usual limits of such assays
Settings: source organism: Vibrio vulnificus YJ016
Measured property: Kd

Exercise: Fill in Kd for record GMWCVLASR
Solution: ≥ 20 µM

---

Molecular target: HLA-A*29:02
Assay: IEDB peptide-MHC binding, purified MHC/competitive/radioactivity; filed as Kd, often an IC50 or EC50 that approximates it; bounds were set here for any values at or beyond the usual limits of such assays
Conditions: source organism: Mammarenavirus juninense
Answer each item with its documented Kd.

1) LDHVNTLHF ... ≥ 63.8 µM

Exercise: Report measured Kd on HLA-A*29:02; entry: RCWLIKNNSY
Solution: ≥ 29.1 µM

---

Target: HLA-B*08:01
Assay: IEDB peptide-MHC binding, purified MHC/competitive/radioactivity; filed as Kd, often an IC50 or EC50 that approximates it; bounds were set here for any values at or beyond the usual limits of such assays
Conditions: source organism: Dengue virus 4 Philippines/H241/1956
Measured property: Kd (nM)
One number for each entry, in nM.

1) WAKNIHTAI ... 23.3
2) LDILTEIASL ... 871
3) YRGAKRMAIL ... 130

Continue with the sequence presented below.
Exercise: Fill in Kd for record HMILVVVTTL
Solution: 5170

src = the Immune Epitope Database (IEDB)
